Exercise: state measured inhibition for each of the substances provided.
# Measured On: E3 ubiquitin-protein ligase Mdm2 (Homo sapiens, UniProt Q00987)
# Sequence (Q00987 whole entry, looked up): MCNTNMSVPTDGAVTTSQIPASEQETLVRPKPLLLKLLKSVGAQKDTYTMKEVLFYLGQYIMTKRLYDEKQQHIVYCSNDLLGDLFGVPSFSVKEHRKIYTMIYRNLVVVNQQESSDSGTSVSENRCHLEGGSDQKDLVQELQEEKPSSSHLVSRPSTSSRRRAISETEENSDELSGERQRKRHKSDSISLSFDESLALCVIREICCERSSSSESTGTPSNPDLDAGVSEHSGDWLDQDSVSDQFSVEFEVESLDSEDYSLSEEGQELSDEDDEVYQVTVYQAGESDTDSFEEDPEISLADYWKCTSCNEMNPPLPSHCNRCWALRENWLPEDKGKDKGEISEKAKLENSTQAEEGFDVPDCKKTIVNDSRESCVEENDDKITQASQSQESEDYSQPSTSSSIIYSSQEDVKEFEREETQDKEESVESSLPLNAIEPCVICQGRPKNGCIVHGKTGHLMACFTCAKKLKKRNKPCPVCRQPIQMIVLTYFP
# Method Notes: Inhibition of GST-tagged Hdm2 expressed in Escherichia coli harboring integrated p53-Hmd2 protein assessed as enzyme-p53 interaction by beta-galactosidase assay
# Experimental Context: concentration not given here
Quick reminder: number only, in %, skip the unit.

Input line: Answer with the recorded inhibition for the substance listed here: H-CIWWYM-OH
Output line: 41

Input line: Answer with the recorded inhibition for the substance listed here: H-CIFYYV-OH
Output line: 67

Input line: Answer with the recorded inhibition for the substance listed here: H-CLWWYM-OH
Output line: 45

Input line: Answer with the recorded inhibition for the substance listed here: H-CMFYYI-OH
Output line: 45

* * *

Exercise: state measured inhibition for each of the substances provided.
# Measured On: E3 ubiquitin-protein ligase Mdm2 (Homo sapiens)
# Method Notes: Inhibition of GST-tagged Hdm2 expressed in Escherichia coli harboring integrated p53-MDMX protein assessed as blockade of enzyme-p53 interaction by beta-galactosidase assay
# Experimental Context: concentration not given here
Quick reminder: number only, in %, skip the unit.

Input line: Name the recorded inhibition of H-CIWWYM-OH , assay system E3 ubiquitin-protein ligase Mdm2 (Homo sapiens).
Output line: 49

Input line: Name the recorded inhibition of H-CIFYYV-OH , assay system E3 ubiquitin-protein ligase Mdm2 (Homo sapiens).
Output line: 42

Input line: Name the recorded inhibition of H-CLWWYM-OH , assay system E3 ubiquitin-protein ligase Mdm2 (Homo sapiens).
Output line: 41

Input line: Name the recorded inhibition of H-CMFYYI-OH , assay system E3 ubiquitin-protein ligase Mdm2 (Homo sapiens).
Output line: 37

* * *

# Measured On: E3 ubiquitin-protein ligase Mdm2 (Homo sapiens)
# Method Notes: Inhibition of GST-tagged Hdm2 expressed in Escherichia coli harboring integrated p53-Hmd2 protein assessed as enhancement of enzyme-p53 interaction by beta-galactosidase assay
# Experimental Context: concentration not given here
Measured Endpoint: inhibition
Form entry: enter the amount, then its unit.

Input line: Answer with the recorded inhibition for the substance listed here: H-CLWWYM-OH
Output line: 12%

Input line: Answer with the recorded inhibition for the substance listed here: H-CIWWYM-OH
Output line: 8%

Input line: Answer with the recorded inhibition for the substance listed here: H-CMFYYI-OH
Output line: 12%

Input line: Answer with the recorded inhibition for the substance listed here: H-CIFYYV-OH
Output line: 34%

* * *

# Measured On: E3 ubiquitin-protein ligase Mdm2 (Homo sapiens)
# Method Notes: Inhibition of GST-tagged Hdm2 expressed in Escherichia coli harboring integrated p53-MDMX protein assessed as enzyme-p53 interaction by beta-galactosidase assay
# Experimental Context: concentration not given here
Measured Endpoint: inhibition (%)
Quick reminder: number only, in %, skip the unit.

Input line: Answer with the recorded inhibition for the substance listed here: H-CLWWYM-OH
Output line: 65

Input line: Answer with the recorded inhibition for the substance listed here: H-CMFYYI-OH
Output line: 63

Input line: Answer with the recorded inhibition for the substance listed here: H-CIFYYV-OH
Output line: 66

Input line: Answer with the recorded inhibition for the substance listed here: H-CIWWYM-OH
Output line: 70

* * *

# Measured On: E3 ubiquitin-protein ligase Mdm2 (Homo sapiens)
# Method Notes: Inhibition of GST-tagged Hdm2 expressed in Escherichia coli harboring integrated p53-MDMX protein assessed as enhancement of enzyme-p53 interaction by beta-galactosidase assay
# Experimental Context: concentration not given here
Exercise: state measured inhibition for each of the substances provided.
Form entry: enter the amount, then its unit.

Input line: Answer with the recorded inhibition for the substance listed here: H-CLWWYM-OH
Output line: 24%

Input line: Answer with the recorded inhibition for the substance listed here: H-CIWWYM-OH
Output line: 29%

Input line: Answer with the recorded inhibition for the substance listed here: H-CIFYYV-OH
Output line: 24%

Input line: Answer with the recorded inhibition for the substance listed here: H-CMFYYI-OH
Output line: 22%

* * *

Exercise: state measured inhibition for each of the substances provided.
# Measured On: Protein Mdm4 (Homo sapiens)
# Method Notes: Inhibition of GST-tagged MDMX expressed in Escherichia coli harboring integrated p53-MDMX protein assessed as enzyme-p53 interaction by beta-galactosidase assay
# Design: concentration or dose not given beside the values
# Experimental Context: concentration not given here
Quick reminder: number only, in %, skip the unit.

Input line: Answer with the recorded inhibition for the substance listed here: H-CLFFNY-OH
Output line: 69

Input line: Answer with the recorded inhibition for the substance listed here: H-CHLRWL-OH
Output line: 75

Input line: Answer with the recorded inhibition for the substance listed here: H-CKAVLF-OH
Output line: 71

Input line: Answer with the recorded inhibition for the substance listed here: H-CRLLDF-OH
Output line: 70

Input line: Answer with the recorded inhibition for the substance listed here: H-CDLRWF-OH
Output line: 86

* * *

Exercise: state measured inhibition for each of the substances provided.
# Measured On: Protein Mdm4 (Homo sapiens)
# Method Notes: Inhibition of GST-tagged MDMX expressed in Escherichia coli harboring integrated p53-MDMX protein assessed as enhancement of enzyme-p53 interaction by beta-galactosidase assay
# Set-up: concentration or dose not given beside the values
# Experimental Context: concentration not given here

Input line: Answer with the recorded inhibition for the substance listed here: H-CRLLDF-OH
Output line: 29%

Input line: Answer with the recorded inhibition for the substance listed here: H-CDLRWF-OH
Output line: 45%

Input line: Answer with the recorded inhibition for the substance listed here: H-CHLRWL-OH
Output line: 34%

Input line: Answer with the recorded inhibition for the substance listed here: H-CKAVLF-OH
Output line: 30%

Input line: Answer with the recorded inhibition for the substance listed here: H-CLFFNY-OH
Output line: 28%

* * *

Exercise: state measured inhibition for each of the substances provided.
# Measured On: Protein Mdm4 (Homo sapiens)
# Method Notes: Inhibition of GST-tagged MDMX expressed in Escherichia coli harboring integrated p53-MDMX protein assessed as blockade of enzyme-p53 interaction by beta-galactosidase assay
# Parameters: concentration or dose not given beside the values
# Experimental Context: concentration not given here
Quick reminder: number only, in %, skip the unit.

Input line: Answer with the recorded inhibition for the substance listed here: H-CHLRWL-OH
Output line: 58

Input line: Answer with the recorded inhibition for the substance listed here: H-CLFFNY-OH
Output line: 47

Input line: Answer with the recorded inhibition for the substance listed here: H-CKAVLF-OH
Output line: 51

Input line: Answer with the recorded inhibition for the substance listed here: H-CDLRWF-OH
Output line: 76

Input line: Answer with the recorded inhibition for the substance listed here: H-CRLLDF-OH
Output line: 49

* * *

# Measured On: Protein Mdm4 (Homo sapiens)
# Method Notes: Inhibition of GST-tagged MDMX expressed in Escherichia coli harboring integrated p53-Hmd2 protein assessed as enhancement of enzyme-p53 interaction by beta-galactosidase assay
# Parameters: concentration or dose not given beside the values
# Experimental Context: concentration not given here
Measured Endpoint: inhibition (%)
Quick reminder: number only, in %, skip the unit.

Input line: Answer with the recorded inhibition for the substance listed here: H-CHLRWL-OH
Output line: 7

Input line: Answer with the recorded inhibition for the substance listed here: H-CLFFNY-OH
Output line: 12

Input line: Answer with the recorded inhibition for the substance listed here: H-CDLRWF-OH
Output line: 4

Input line: Answer with the recorded inhibition for the substance listed here: H-CKAVLF-OH
Output line: 5

Input line: Answer with the recorded inhibition for the substance listed here: H-CRLLDF-OH
Output line: 5

Reference for the values: ChEMBL document CHEMBL1255504
